test system: HIV with mutations in the HIV protease sequence; assay: Phenotypic fold resistance to protease inhibitors, protease mutations 84A/84L/84C/54M/54L/54V in a background (Examples 8-13); format: cell-based, HIV-1; conditions: Table 9 #14, protease genotype 10F + 46I + 71V
Measured mean fold increase in resistance accompanies every entry in the list below.
Hi! Could you send only the number? It should be in fold, unit omitted.

[[record]]
smiles_data = "CC(C)c1nc(CN(C)C(=O)N[C@H](C(=O)N[C@@H](Cc2ccccc2)C[C@H](O)[C@H](Cc2ccccc2)NC(=O)OCc2cncs2)C(C)C)cs1"
endpoint_unit = "fold"
reported = 4.1

[[record]]
smiles_data = "Cc1c(O)cccc1C(=O)N[C@@H](CSc1ccccc1)[C@H](O)CN1C[C@H]2CCCC[C@H]2C[C@H]1C(=O)NC(C)(C)C"
endpoint_unit = "fold"
reported = 45.2

[[record]]
smiles_data = "CC(C)CN(C[C@@H](O)[C@H](Cc1ccccc1)NC(=O)O[C@H]1CCOC1)S(=O)(=O)c1ccc(N)cc1"
endpoint_unit = "fold"
reported = 4.2

[[record]]
smiles_data = "CC(C)(C)NC(=O)[C@@H]1C[C@@H]2CCCC[C@@H]2CN1C[C@@H](O)[C@H](Cc1ccccc1)NC(=O)[C@H](CC(N)=O)NC(=O)c1ccc2ccccc2n1"
endpoint_unit = "fold"
reported = 1.9


Continue with the next compound.
For CC(C)(C)NC(=O)[C@@H]1CN(Cc2cccnc2)CCN1C[C@@H](O)C[C@@H](Cc1ccccc1)C(=O)N[C@H]1c2ccccc2C[C@H]1O the compound record lists mean fold increase in resistance as 22.2

Entry source: patent US8574831B2
